molecular target: EGFR Exon19Del/T790M (Homo sapiens, UniProt P00533, DEL746-750/T790M); construct: purchased Carna Bio; assay: Inhibition of EGFR Exon19Del/T790M biochemical enzymatic activity (HTRF); details: EGFR Del19-T790M, 1 mM ATP, 1 h, room temperature, read-out: IC50 (nM) @Del19-T790M
Sequence (P00533 with tags, fused parts or gaps DEL746-750/T790M limits assumed): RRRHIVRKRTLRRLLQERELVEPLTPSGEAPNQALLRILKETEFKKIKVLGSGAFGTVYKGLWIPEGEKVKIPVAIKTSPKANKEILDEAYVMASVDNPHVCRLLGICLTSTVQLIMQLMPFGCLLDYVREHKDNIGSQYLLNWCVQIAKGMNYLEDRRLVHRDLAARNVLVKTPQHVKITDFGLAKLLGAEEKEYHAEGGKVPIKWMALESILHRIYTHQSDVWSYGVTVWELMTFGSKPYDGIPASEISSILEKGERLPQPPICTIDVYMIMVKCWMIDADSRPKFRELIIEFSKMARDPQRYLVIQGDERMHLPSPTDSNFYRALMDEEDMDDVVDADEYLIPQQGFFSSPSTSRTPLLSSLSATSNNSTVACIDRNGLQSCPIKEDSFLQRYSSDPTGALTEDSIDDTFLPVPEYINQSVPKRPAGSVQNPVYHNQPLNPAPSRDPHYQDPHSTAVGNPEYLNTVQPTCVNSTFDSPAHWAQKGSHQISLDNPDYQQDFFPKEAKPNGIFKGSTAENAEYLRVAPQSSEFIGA
1 (yes) if IC50 is below 4 nM. 0 (no) if not; exact matches included in 0 (no).

- C[C@@H]1CCCOc2c(cnn2C)-c2cc(cn(C)c2=O)C(=O)Nc2nc3ccc(N4CCC5(CCN(C)C5)CC4)cc3n2C1 [Example A35]: 1 (yes)
- Cc1cc2cc(n1)-c1cnn(C3CC3)c1OCCN(CC(F)(F)F)CCn1c(nc3ccccc31)NC2=O [Example B6]: 0 (no)
- CN1CCC2(CCN(c3ccc4nc5n(c4c3)C34CCC(CN(CCOc6c(cnn6C)-c6cc(cn(C)c6=O)C(=O)N5)C3)C4)CC2)C1 (single isomer, unassigned) [Example A82B]: 1 (yes)
- Cn1ncc2c1OCCN1CC3CCC(C3)(C1)n1c(nc3cc(F)c(N4CCOCC4)cc31)NC(=O)c1cc-2c(=O)n(C)c1 (single isomer, unassigned) [Example A118B]: 0 (no)
- C[C@@H]1CCCOc2c(cnn2C)-c2cc(cn(C)c2=O)C(=O)Nc2nc3ccc(N4CC5(CCN(C)CC5)C4)cc3n2C1 [Example A41]: 1 (yes)
- CC(C)N1CCN(c2ccc3nc4n(c3c2)C23CCC(CN(CCOc5c(cnn5C)-c5cc(cn(C)c5=O)C(=O)N4)C2)C3)CC1 (single isomer, unassigned) [Example A108B]: 1 (yes)

Reference for the values: patent US20260365670A1
